system: PPARg:RXRa 30nM:10nM, anti-RXR (NR concentration 30 nM, RXRa partner concentration 10 nM); assay: PBM binding z-score (relative to random genomic background probes); higher = stronger binding; sequences stand for … in GC…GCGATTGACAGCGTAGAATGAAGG
readoutType: PBM binding z-score
// return just the number, without any unit appended

The following sequences have reported results that may help.
orderedResidues	PBM binding z-score
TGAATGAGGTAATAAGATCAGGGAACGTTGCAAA	0.309
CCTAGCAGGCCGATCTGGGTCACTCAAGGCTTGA	-0.37
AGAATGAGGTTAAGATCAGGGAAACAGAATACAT	1.11

Asked: I would be grateful if you could share the reported PBM binding z-score for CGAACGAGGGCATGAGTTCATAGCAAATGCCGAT .
Given back: 0.55

Asked: Query (sequence): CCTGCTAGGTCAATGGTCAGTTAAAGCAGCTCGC ; field requested: PBM binding z-score
Given back: 2.78

Asked: Which measured PBM binding z-score value corresponds to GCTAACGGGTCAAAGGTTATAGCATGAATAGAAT ?
Given back: 9.26

Asked: Consider the sequence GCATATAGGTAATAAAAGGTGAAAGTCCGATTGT and give its measured PBM binding z-score.
Given back: 0.664

Asked: Need PBM binding z-score of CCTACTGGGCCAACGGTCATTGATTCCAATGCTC , thanks.
Given back: 4.4

Asked: Would you mind telling me what PBM binding z-score value was observed for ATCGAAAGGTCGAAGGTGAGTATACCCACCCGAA ?
Given back: 2.14

Asked: GET /values?readout=PBM binding z-score&item= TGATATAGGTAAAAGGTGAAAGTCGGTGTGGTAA
Given back: 8.67

Asked: Please report the recorded PBM binding z-score for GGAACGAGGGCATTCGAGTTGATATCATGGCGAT .
Given back: 0.332

Asked: Reported PBM binding z-score, sequence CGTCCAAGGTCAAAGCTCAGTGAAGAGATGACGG : ____
Given back: 2.13

Asked: Please give the measured PBM binding z-score for this sequence: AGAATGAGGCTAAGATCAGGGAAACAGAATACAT
Given back: 0.113

Asked: Data request, read-out PBM binding z-score, for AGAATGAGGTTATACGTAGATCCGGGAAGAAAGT
Given back: 0.93

Asked: Item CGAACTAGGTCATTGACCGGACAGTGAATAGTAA has what recorded PBM binding z-score?
Given back: 3.06

Asked: State the recorded PBM binding z-score for this entry: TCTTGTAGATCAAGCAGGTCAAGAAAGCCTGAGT
Given back: 2.11

Asked: For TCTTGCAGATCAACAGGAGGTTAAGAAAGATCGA , what is its reported PBM binding z-score?
Given back: 1.89

Asked: Request the reported PBM binding z-score associated with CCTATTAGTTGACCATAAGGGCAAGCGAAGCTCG
Given back: -0.0041

Asked: // returns reported PBM binding z-score for input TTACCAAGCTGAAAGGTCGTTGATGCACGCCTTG
Given back: 1.06

Asked: PBM binding z-score for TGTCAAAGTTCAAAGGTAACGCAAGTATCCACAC ?
Given back: 5.51

Asked: Return reported PBM binding z-score; argument: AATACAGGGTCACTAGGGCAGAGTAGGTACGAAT
Given back: 3.79

Reference for the values: the supplement of paper PMC6555819
